Reference for the values: patent US7074785B2

Experiment: logP determination by HPLC (reversed-phase C18, EEC Directive 79/831 Annex V.A8)
Assay type: physicochemical
Details: HPLC, acidic range pH 2.3, 0.1% aqueous phosphoric acid/acetonitrile; marked a); read-out: log P (pH 2.3)
Procedure: The logP values stated in the above tables and Preparation Examples are determined in accordance with EEC Directive 79/831 Annex V.A8 by HPLC (High Performance Liquid Chromatography) using a reversed-phase column (C 18). Temperature: 43° C. […] Calibration is carried out using unbranched alkan-2-ones (having 3 to 16 carbon atoms), with known logP values (the logP values determined on the basis of the retention times using linear interpolation between two successive alkanones).
Rule: chromatographic logP under 3 gives 0.0, otherwise 1.0.

Answered examples (10):
- compound: "CCOCCOC(=O)Nc1ccc(-c2ccc(C3CCC(c4c(F)cccc4F)=N3)cc2)cc1 (centres unmarked)"
  label: 0.0
- compound: "O=C(Nc1ccc(-c2ccc(C3CCC(c4c(F)cccc4F)=N3)cc2)cc1)OC1CCCCC1 (centres unmarked)"
  label: 1.0
- compound: "CCCCOC(=O)N(C)c1ccc(-c2ccc(C3CCC(c4c(F)cccc4F)=N3)cc2)cc1 (centres unmarked)"
  label: 1.0
- compound: "CN(C)CCOC(=O)Nc1ccc(-c2ccc(C3CCC(c4c(F)cccc4F)=N3)cc2)cc1 (centres unmarked)"
  label: 0.0
- compound: "COC(=O)Nc1ccc(Br)cc1 [III-1, methyl 4-bromophenylcarbamate]"
  label: 0.0
- compound: "O=C(Nc1ccc(-c2ccc(C3CCC(c4c(F)cccc4F)=N3)cc2)cc1)OCCc1ccccc1 (centres unmarked)"
  label: 1.0
- compound: "CC(C)(C)COC(=O)Nc1ccc(-c2ccc(C3CCC(c4c(F)cccc4F)=N3)cc2)cc1 (centres unmarked)"
  label: 1.0
- compound: "CC(C)C(C)OC(=O)Nc1ccc(-c2ccc(C3CCC(c4c(F)cccc4F)=N3)cc2)cc1 (centres unmarked)"
  label: 1.0
- compound: "COC(=O)N(C)c1ccc(-c2ccc(C3CCC(c4c(F)cccc4F)=N3)cc2)cc1 (centres unmarked)"
  label: 0.0
- compound: "COCCOC(=O)Nc1ccc(-c2ccc(C3CCC(c4c(F)cccc4F)=N3)cc2)cc1 (centres unmarked)"
  label: 0.0

Quick check: does CCOC(=O)Nc1ccc(-c2ccc(C3CCC(c4c(F)cccc4F)=N3)cc2)cc1 (centres unmarked) have chromatographic logP greater than or equal to 3?
0.0

Quick check: does CC(OC(=O)Nc1ccc(-c2ccc(C3CCC(c4c(F)cccc4F)=N3)cc2)cc1)c1ccccc1 (centres unmarked) have chromatographic logP greater than or equal to 3?
1.0

Quick check: does O=C(Nc1ccc(-c2ccc(C3CCC(c4c(F)cccc4F)=N3)cc2)cc1)OCCOCCOCCCC(F)(F)C(F)(F)F (centres unmarked) have chromatographic logP greater than or equal to 3?
1.0

Quick check: does O=C(Nc1ccc(-c2ccc(C3CCC(c4c(F)cccc4F)=N3)cc2)cc1)OCc1cccs1 (centres unmarked) have chromatographic logP greater than or equal to 3?
1.0

Quick check: does CCCCC(CC)COCCOC(=O)Nc1ccc(-c2ccc(C3CCC(c4c(F)cccc4F)=N3)cc2)cc1 (centres unmarked) have chromatographic logP greater than or equal to 3?
1.0

Quick check: does CCCCCOC(=O)Nc1ccc(-c2ccc(C3CCC(c4c(F)cccc4F)=N3)cc2)cc1 (centres unmarked) have chromatographic logP greater than or equal to 3?
1.0

Quick check: does COC(=O)Nc1ccc(-c2ccc(C3CCC(c4c(F)cccc4F)=N3)cc2)cc1 (centres unmarked) have chromatographic logP greater than or equal to 3?
0.0

Quick check: does CCC(CC)OC(=O)Nc1ccc(-c2ccc(C3CCC(c4c(F)cccc4F)=N3)cc2)cc1 (centres unmarked) have chromatographic logP greater than or equal to 3?
1.0
